# SYSTEM_TESTED: full-length beta-Catenin (Uniprot ID P35222) (Homo sapiens, UniProt P35222)
# Construct: 10 nM full-length beta-Catenin (Uniprot ID P35222)
# Sequence (P35222 whole entry): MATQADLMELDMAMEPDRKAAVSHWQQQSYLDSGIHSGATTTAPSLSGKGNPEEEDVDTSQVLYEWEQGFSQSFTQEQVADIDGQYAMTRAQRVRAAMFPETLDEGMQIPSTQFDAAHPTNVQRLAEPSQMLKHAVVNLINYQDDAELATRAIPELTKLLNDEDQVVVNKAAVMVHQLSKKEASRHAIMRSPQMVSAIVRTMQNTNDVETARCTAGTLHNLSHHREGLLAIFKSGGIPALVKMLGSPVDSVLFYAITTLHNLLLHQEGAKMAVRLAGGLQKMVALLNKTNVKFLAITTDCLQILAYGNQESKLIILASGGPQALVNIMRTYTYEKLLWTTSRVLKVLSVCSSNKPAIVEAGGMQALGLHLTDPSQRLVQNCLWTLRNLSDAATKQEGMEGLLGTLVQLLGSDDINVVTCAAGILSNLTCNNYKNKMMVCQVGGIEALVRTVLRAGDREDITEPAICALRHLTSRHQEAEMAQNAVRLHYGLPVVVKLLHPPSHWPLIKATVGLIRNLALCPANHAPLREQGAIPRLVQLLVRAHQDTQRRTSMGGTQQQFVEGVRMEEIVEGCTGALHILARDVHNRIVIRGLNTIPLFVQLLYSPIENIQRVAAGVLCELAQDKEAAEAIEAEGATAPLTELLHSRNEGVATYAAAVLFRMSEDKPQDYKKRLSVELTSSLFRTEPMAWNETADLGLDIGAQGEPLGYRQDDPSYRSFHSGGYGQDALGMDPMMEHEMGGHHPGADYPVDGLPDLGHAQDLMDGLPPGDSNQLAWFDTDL
# PROTOCOL_TEXT: Fluorescence polarization IC50 (beta-catenin / 5FAM-TCF4 10-53 competition)
# Type: binding
# SETUP_CONDITIONS: fluorescence polarization; read-out: beta-Catenin FP IC50
EXPERIMENTAL_READOUT: pIC50
Please note pIC50 is a logarithmic value: minus log10 of concentration in mol/L. Answer with that number alone.

>>> readout_value("CC(=O)N1CCC[C@]12CC=CCCCC1(CCCC=CCCOC(=O)N3CC[C@@](C(=O)N[C@@H](Cc4ccsc4)C(=O)N[C@@H](Cc4csc5ccccc45)C(=O)N[C@@H](CCC(N)=O)C(N)=O)(C3)NC(=O)[C@H](CC(C)C)NC(=O)[C@H](Cc3ccccc3)NC(=O)[C@H](C)NC(=O)[C@H](C)NC(=O)[C@H](CC(=O)O)NC(=O)[C@H](CC(=O)O)NC1=O)NC(=O)[C@H](CC(C)(C)C)NC(=O)[C@H](CC(=O)O)NC2=O (stereo partly drawn) [I-1815]")
7.34
>>> readout_value("C[C@@H]1NC(=O)[C@H](C)NC(=O)[C@H](CC(=O)O)NC(=O)[C@H](CC(=O)O)NC(=O)C2(CCCC=CCCCOC(=O)N3CC[C@@](C(=O)N[C@@H](Cc4ccsc4)C(=O)N[C@@H](Cc4csc5ccccc45)C(=O)N[C@@H](CCC(N)=O)C(N)=O)(C3)NC(=O)[C@H](CC(N)=O)NC(=O)[C@H](Cc3ccccc3)NC1=O)CCCC=CCOc1cccc(c1)C(=O)N[C@@H](CC(=O)O)C(=O)N[C@@H](CC(C)(C)C)C(=O)N2 (stereo partly drawn) [I-2306]")
7.35

Let us move to another entry and its pIC50.
What value of measured pIC50 is listed for CCCCOC(=O)N1CCC[C@]12CC=CCCCC1(CCCC=CCCCOC(=O)N3CC[C@@](C(=O)N[C@@H](Cc4ccsc4)C(=O)N[C@@H](Cc4csc5ccccc45)C(=O)N[C@@H](Cc4c[nH]cn4)C(N)=O)(C3)NC(=O)[C@H](CCC(N)=O)NC(=O)[C@H](Cc3ccccc3)NC(=O)[C@H](C)NC(=O)[C@H](C)NC(=O)[C@H](CC(=O)O)NC(=O)[C@H](CC(=O)O)NC1=O)NC(=O)[C@H](CC(C)(C)C)NC(=O)[C@H](CC(=O)O)NC2=O (stereo partly drawn) [I-2363] ? 7.36
